test system: MCF7; assay: Induction of cell cycle arrest in human MCF7 cells assessed as accumulation of cells in G1 phase at 2 uM after 24 hrs by flow cytometry (reference value: 46%); type: functional
Measurement kind: Activity (%)
The figure you give is taken to be in %; do not add the unit.

| Smiles entry | Scale unit | Activity |
| --- | --- | --- |
| Oc1ccc(C(c2c[nH]c3ccccc23)c2c[nH]c3ccccc23)cc1 | % | 54 |
| COc1cc2c(cc1O)N=C[C@@H]1CCCN1C2=O | % | 53.62 |
| Oc1cccc(C(c2c[nH]c3ccccc23)c2c[nH]c3ccccc23)c1 | % | 50 |

Identify the reported Activity for the following entry. COc1cc2c(cc1OCCCCCOc1cccc(C(c3c[nH]c4ccccc34)c3c[nH]c4ccccc34)c1)N=C[C@@H]1CCCN1C2=O
39.36

Identify the reported Activity for the following entry. COc1cc2c(cc1OCCCCCOc1ccc(C(c3c[nH]c4ccccc34)c3c[nH]c4ccccc34)cc1)N=C[C@@H]1CCCN1C2=O
41.51
